Quick reference for Kd among some binders
- tested on: biotinylated human DLL3 protein expressed as a human IgG1 fusion protein (human) (UniProt Q9NYJ7)
- Sequence (Q9NYJ7 other isoform, or with tags, fused parts or gaps): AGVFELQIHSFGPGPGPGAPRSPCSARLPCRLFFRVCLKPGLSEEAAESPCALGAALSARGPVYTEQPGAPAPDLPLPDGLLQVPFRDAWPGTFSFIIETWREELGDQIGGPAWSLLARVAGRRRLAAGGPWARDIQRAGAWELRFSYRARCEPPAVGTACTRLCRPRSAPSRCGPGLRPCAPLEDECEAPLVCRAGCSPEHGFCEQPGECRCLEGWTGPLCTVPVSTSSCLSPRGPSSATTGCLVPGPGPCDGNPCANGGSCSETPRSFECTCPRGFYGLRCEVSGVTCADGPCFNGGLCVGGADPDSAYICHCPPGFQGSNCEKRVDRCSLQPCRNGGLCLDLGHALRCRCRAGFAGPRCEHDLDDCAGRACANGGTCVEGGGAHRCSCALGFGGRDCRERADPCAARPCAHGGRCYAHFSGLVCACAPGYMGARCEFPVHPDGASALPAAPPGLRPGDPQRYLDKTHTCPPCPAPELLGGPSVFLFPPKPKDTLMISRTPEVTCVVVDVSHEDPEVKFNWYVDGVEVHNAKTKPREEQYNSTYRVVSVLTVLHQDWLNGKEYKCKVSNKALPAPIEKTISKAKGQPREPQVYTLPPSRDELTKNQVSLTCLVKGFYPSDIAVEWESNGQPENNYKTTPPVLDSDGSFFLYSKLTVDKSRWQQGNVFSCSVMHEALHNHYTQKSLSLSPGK
- assay procedure: Octet BLI; biotinylated huDLL3-IgG1 fusion on streptavidin tips; single 50 nM; conditioned medium
Provide only the numeric value, understood in nM.

# example entries with known answers
binder	Kd, nM
anti-DLL3 trispecific protein 1E010 (protein, part only; not given: anti-CD3 fragment and anti-albumin sdAb, part only) chain, part: EVQLVESGGGLVQPGGSLTLSCVASGSVSSINAMGWYRRAPGKQRELVAGISSDGSKVYIDSVKGRFTISRDNAKNSVYLQMNSLRAEDTAVYYCYYFRTVSGLSMRYWGQGTLVTVSSGGGGSGGGSGGGGSGGGSHHHHHH	5.7
anti-DLL3 trispecific protein 2D05 (protein, part only; not given: anti-CD3 fragment and anti-albumin domain, part only) chain, part: EVQLVESGGGLVQPGGSLTLSCVASGSTSRINAMGWYRRAPGKQRELVAGISSDGSKVYADSVKGRFTISRDNAKNSVYLQMNSLRAEDTAVYYCYYFRTASGSSMRYWGQGTLVTVSSGGGGSGGGSGGGGSGGGSHHHHHH	8.3
anti-DLL3 trispecific protein 1A012 (protein, part only; not given: CD3 binder and albumin binder, part only) chain, part: EVQLVESGGGLVQPGGSLTLSCVASGSTSSINAMAWYRRAPGKQRELVAGISSDGSKVYSDSVKGRFTISRDNAKNSVYLQMNSLRAEDTAVYYCYYFRTVLGSSMRYWGQGTLVTVSSGGGGSGGGSGGGGSGGGSHHHHHH	4.9

Now, please, on to the next binder.
# get_value(readout='Kd', item= anti-DLL3 trispecific protein 1C011 (protein, part only; not given: anti-CD3 fragment and anti-albumin domain, part only) chain, part: EVQLVESGGGLVQPGGSLTLSCVASGTTSSINAMGWYRRAPGKQRELVAGISSDGSKVYEDSVKGRFTISRDNAKNSVYLQMNSLRAEDTAVYYCYYFRTVSGSSMRYWGQGTLVTVSSGGGGSGGGSGGGGSGGGSHHHHHH )
7.6
